The following molecules are shown together with reported IC50 values.
System Name: Axl (Homo sapiens (Human), UniProt P30530)
Sequence (P30530 26-894): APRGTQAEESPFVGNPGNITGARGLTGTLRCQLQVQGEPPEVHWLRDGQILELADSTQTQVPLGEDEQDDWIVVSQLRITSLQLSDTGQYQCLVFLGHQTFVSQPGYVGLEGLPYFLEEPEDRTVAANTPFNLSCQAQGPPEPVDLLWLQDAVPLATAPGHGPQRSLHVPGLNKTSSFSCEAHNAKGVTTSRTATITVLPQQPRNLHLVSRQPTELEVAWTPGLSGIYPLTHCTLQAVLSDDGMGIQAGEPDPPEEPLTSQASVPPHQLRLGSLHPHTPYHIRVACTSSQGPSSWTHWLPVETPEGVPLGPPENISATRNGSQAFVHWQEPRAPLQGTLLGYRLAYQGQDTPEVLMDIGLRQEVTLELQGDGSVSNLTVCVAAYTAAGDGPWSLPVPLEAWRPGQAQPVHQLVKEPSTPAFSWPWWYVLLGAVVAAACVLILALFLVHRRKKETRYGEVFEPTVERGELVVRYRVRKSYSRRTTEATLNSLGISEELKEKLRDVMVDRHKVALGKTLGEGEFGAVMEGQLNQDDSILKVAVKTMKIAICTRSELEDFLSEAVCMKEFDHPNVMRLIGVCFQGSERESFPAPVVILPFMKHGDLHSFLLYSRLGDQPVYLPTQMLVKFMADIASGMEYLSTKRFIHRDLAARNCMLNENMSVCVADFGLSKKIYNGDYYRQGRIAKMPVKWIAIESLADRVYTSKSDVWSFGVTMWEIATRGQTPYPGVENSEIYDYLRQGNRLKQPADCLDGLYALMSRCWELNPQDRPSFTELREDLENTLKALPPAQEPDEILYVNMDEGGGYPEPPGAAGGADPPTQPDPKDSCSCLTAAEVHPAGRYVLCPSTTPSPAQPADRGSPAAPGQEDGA
Assay Text: Cellular Axl phosphorylation assay
Assay type: cell-based
Recorded Conditions: HEK293 cells transfected with Axl cDNA, 1 hour incubation

The cases that follow already have their IC50 on record.
COc1cc2nccc(Oc3ccc(NC(=O)c4nn(C)cc4Br)cc3F)c2cc1OC [Example 3]    500 to 5000 nM
CCOc1cn(-c2ccc(F)cc2)nc1C(=O)Nc1ccc(Oc2ccnc3cc(OC)c(OC)cc23)c(F)c1 [Example 16]    < 500 nM
CCOc1cn(-c2ccc(F)cc2O)nc1C(=O)Nc1ccc(Oc2ccnc3cc(OC)c(OC)cc23)cn1 [Example 104]    < 500 nM

Now for a further molecule.
Any idea what IC50 was measured for CCOc1cn(-c2ccc(F)cc2C)nc1C(=O)Nc1ccc(Oc2ccnc3cc(OCCCN4CCNCC4)c(OC)cc23)c(F)c1 [Example 69] ?
< 500 nM

* * *

System Name: Axl (Homo sapiens (Human), UniProt P30530)
Assay Text: Axl binding assay
The following compounds are shown together with reported IC50 values.

Any idea what IC50 was measured for COc1cc2c(Oc3ccc(NC(=O)c4nn(-c5ccc(F)cc5)cc4OC(C)C)cc3F)ccnc2cc1OCCCN1CCN(C)CC1 [Example 62] ?
< 500 nM

COc1cc2c(Oc3ccc(NC(=O)c4nn(-c5ccc(F)cc5)cc4OC(C)C)cc3F)ccnc2cc1OCCCN1CCNCC1 [Example 67] ?
< 500 nM

CCOc1cn(-c2ccn(C)n2)nc1C(=O)Nc1ccc(Oc2ccnc3cc(OC)c(OC)cc23)c(F)c1 [Example 106] ?
< 500 nM

COc1cc2nccc(Oc3ccc(NC(=O)c4nn(-c5ccc(F)cc5)cc4OCC4CC4)cc3C)c2cc1OC [Example 30] ?
< 500 nM

COc1cc2c(Oc3ccc(NC(=O)c4nn(-c5ccc(F)cc5)cc4OCc4ccccc4)cc3F)ccnc2cc1OCCCN1CCOCC1 [Example 51] ?
< 500 nM

COc1cc2nccc(Oc3ccc(NC(=O)c4nn(-c5ccc(F)cc5)cc4OCC4CC4)cc3Cl)c2cc1OC [Example 34] ?
< 500 nM

COc1cc2nccc(Oc3ccc(NC(=O)c4nccs4)cc3F)c2cc1OC [Example 6] ?
500 to 5000 nM

COc1cc2nccc(Oc3ccc(NC(=O)c4nn(-c5ccc(F)cc5)cc4OC(C)C)cc3F)c2cc1OC [Example 21] ?
< 500 nM

COc1cc2nccc(Oc3ccc(NC(=O)c4csc(-c5ccc(C(F)(F)F)cc5)n4)cc3F)c2cc1OC [Example 2] ?
500 to 5000 nM

COc1cc2nccc(Oc3ccc(NC(=O)c4cc(C)n(C(C)(C)C)n4)cc3F)c2cc1OC [Example 5] ?
< 500 nM

* * *

System Name: Axl (Homo sapiens (Human), UniProt P30530)
Assay Text: Axl binding assay
pIC50: −log10 of the molar value.
Readout Kind: pIC50

COc1cc2c(Oc3ccc(NC(=O)c4nc(-c5ccccc5)oc4C)cc3F)ccnc2cc1OCC1CCNCC1 [Example 80]    > 6.30
CCOc1cn(-c2ccc(OC)cc2C)nc1C(=O)Nc1ccc(Oc2ccnc3cc(OC)c(OC)cc23)c(F)c1 [Example 91]    > 6.30
CCOc1cn(-c2ccc(F)cc2C)nc1C(=O)Nc1ccc(Oc2ccnc3cc(OCC4CCN(CC(C)C)CC4)c(OC)cc23)c(F)c1 [Example 83]    > 6.30

Any idea what pIC50 was measured for COc1cc2c(Oc3ccc(NC(=O)c4nc(Br)cs4)nc3)ccnc2cc1OCC1CCNCC1 [Example 102] ?
> 6.30

CCOc1cn(-c2ccc(F)cc2C)nc1C(=O)Nc1ccc(Oc2ccnc3cc(OCCCN4CCN(C)CC4)c(OC)cc23)c(F)c1 [Example 57] ?
> 6.30
